target: hCA VII (Homo sapiens)
Sequence (Q9Y2D0 34-317): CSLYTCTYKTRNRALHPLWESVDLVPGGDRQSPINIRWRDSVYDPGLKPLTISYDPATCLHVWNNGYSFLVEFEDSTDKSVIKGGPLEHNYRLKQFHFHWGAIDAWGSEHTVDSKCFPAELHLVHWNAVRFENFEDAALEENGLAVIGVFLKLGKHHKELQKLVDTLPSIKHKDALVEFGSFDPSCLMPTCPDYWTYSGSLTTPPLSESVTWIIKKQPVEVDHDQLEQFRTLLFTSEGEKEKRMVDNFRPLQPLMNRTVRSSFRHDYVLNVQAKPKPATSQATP
pKi: −log10 of the molar value.
ENDPOINT: pKi

> print(dat)
                              sample.smiles  test.result
1  O=C(/C=C/c1ccc(O)c2c1[C@H](C(=O)O)[C@@H](c1ccc(O)c(O)c1)O2)O[C@H](Cc1ccc(O)c(O)c1)C(=O)O         6.22

* * *

target: hCA VA (Homo sapiens)
Sequence (P35218 39-305): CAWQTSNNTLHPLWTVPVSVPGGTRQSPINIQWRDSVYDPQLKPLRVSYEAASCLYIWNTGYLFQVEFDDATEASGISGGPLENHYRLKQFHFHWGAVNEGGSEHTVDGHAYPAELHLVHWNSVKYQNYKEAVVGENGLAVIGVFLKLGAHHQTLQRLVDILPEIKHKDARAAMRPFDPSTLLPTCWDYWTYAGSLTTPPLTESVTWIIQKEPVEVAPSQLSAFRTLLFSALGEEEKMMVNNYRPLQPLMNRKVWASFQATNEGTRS
ENDPOINT: Ki (nM)

> print(dat)
                              sample.smiles       target.or.system  test.result
1  O=C(/C=C/c1ccc(O)c2c1[C@H](C(=O)O)[C@@H](c1ccc(O)c(O)c1)O2)O[C@H](Cc1ccc(O)c(O)c1)C(=O)O  hCA VA (Homo sapiens)          690

* * *

Molecular target: hCA I (Homo sapiens)
Construct: made in house
Sequence (P00915 whole entry): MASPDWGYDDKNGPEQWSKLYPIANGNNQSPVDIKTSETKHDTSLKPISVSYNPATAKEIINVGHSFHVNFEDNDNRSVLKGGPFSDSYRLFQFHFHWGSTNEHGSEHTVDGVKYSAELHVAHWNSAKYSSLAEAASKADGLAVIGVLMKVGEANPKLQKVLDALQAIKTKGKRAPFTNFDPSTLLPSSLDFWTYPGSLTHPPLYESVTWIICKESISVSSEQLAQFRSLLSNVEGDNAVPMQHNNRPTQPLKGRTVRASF
Test: Stopped-flow CO2 hydrase assay
Type: biochemical
Settings: mean from 3 assays, read-out: K i hCA I
Description: An Applied Photophysics stopped‐flow instrument was used to assay the CA‐catalyzed CO2 hydration activity. […] The uncatalyzed rates were determined in the same manner and subtracted from the total observed rates. Stock solutions of the inhibitor (0.1 mM) were prepared in distilled−deionized water, and dilutions up to 0.01 nM were done thereafter with the assay buffer. […]
ENDPOINT: Ki

> print(dat)
                              sample.smiles  test.result
1  O=C(/C=C/c1ccc(O)c2c1[C@H](C(=O)O)[C@@H](c1ccc(O)c(O)c1)O2)O[C@H](Cc1ccc(O)c(O)c1)C(=O)O     > 100 µM
